Recorded values, source patent US10508104B2.

TARGET_ENTITY: human APJ receptor (Homo sapiens (Human))
Sequence (P35414 whole entry): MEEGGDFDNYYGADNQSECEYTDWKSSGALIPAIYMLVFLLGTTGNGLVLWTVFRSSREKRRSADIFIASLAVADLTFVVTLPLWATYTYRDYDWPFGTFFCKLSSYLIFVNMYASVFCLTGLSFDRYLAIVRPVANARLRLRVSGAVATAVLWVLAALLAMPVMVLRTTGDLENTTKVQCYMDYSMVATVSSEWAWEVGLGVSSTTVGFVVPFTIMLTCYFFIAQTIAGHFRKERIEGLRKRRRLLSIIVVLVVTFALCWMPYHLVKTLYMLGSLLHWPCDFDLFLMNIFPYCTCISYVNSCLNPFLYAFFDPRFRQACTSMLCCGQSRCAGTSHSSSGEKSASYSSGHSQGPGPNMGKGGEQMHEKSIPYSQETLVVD
ASSAY: Intracellular cAMP accumulation assay (APJ hcAMP, HTRF)
Assay type: cell-based
CONDITIONS: human APJ, intracellular cAMP accumulation; read-out: Human APJ cAMP EC50 Potency range
pEC50: −log10 of the molar value.
READOUT_LABEL: pEC50

1) CCCCc1nc(=O)c(S(=O)(=O)c2ccc(-c3ccc(F)nc3)cc2)c(O)n1[C@H]1CCc2ccccc21; 8.00 to 11.00
2) CCCCc1nc(=O)c(S(=O)(=O)c2ccc(C)cc2)c(O)n1-c1c(OC)cccc1OC; 8.00 to 11.00
3) CCCCc1nc(=O)c(S(=O)(=O)c2ccc(-c3cncc(C)c3)cc2)c(O)n1[C@H]1CCc2ccccc21; 6.52 to 7.00
4) CCCc1nc(=O)c(S(=O)(=O)c2ccc(-c3cccnc3C)cc2)c(O)n1[C@@H](COC)c1ccccc1; 8.00 to 11.00
